assay: solvent given as SMILES; details: in Cc1ccccc1
Would you kindly list fluorescence lifetime for each of these compounds?
Quick reminder: number only, in ns, skip the unit.

Challenge: Give fluorescence lifetime for CN(C)c1ccc(/C=C/C=C2\CC/C(=C\C=C\c3ccc(N(C)C)cc3)C2=O)cc1
Response given: 0.86

Challenge: Give fluorescence lifetime for CC(C)(C)c1ccc(-c2nnc(-c3c(-n4c5ccccc5c5ccccc54)c(-n4c5ccccc5c5ccccc54)c(-n4c5ccccc5c5ccccc54)c(-n4c5ccccc5c5ccccc54)c3-n3c4ccccc4c4ccccc43)o2)cc1
Response given: 2.9

Challenge: Give fluorescence lifetime for Fc1c(-n2c3ccccc3c3ccccc32)c(-c2nnc(-c3ccccc3)o2)c(-n2c3ccccc3c3ccccc32)c(-n2c3ccccc3c3ccccc32)c1-n1c2ccccc2c2ccccc21
Response given: 3.2

Challenge: Give fluorescence lifetime for CC(=O)Nc1ccccc1C(=O)OC1CC(C)CCC1C(C)C (stereo not given)
Response given: 3.9

Challenge: Give fluorescence lifetime for N#Cc1c(-n2c3ccc(Br)cc3c3cc(Br)ccc32)c(-n2c3ccc(Br)cc3c3cc(Br)ccc32)c(C#N)c(-n2c3ccc(Br)cc3c3cc(Br)ccc32)c1-n1c2ccc(Br)cc2c2cc(Br)ccc21
Response given: 0.3

Challenge: Give fluorescence lifetime for COC(=O)C(Cc1ccc2oc(-c3ccc(Nc4ccccc4)cc3)nc2c1)NC(=O)OC(C)(C)C (stereo not given)
Response given: 1.36

Challenge: Give fluorescence lifetime for CC1(C)c2ccccc2N(c2c(F)cc(-c3nnc(-c4ccccc4)o3)cc2F)c2ccccc21
Response given: 8.8

Challenge: Give fluorescence lifetime for Cc1ccc2c(c1)C(c1ccccc1)(c1ccccc1)c1cc(C)ccc1N2c1ccc2c(c1)Oc1ccccc1B2c1c(C(C)C)cc(C(C)C)cc1C(C)C
Response given: 23

Challenge: Give fluorescence lifetime for CC(C)(C)c1ccc2c(c1)c1cc(C(C)(C)C)ccc1n2-c1ccc(C#Cc2cccc(C#Cc3ccc(-n4c5ccc(C(C)(C)C)cc5c5cc(C(C)(C)C)ccc54)cc3)c2)cc1
Response given: 1.65

Challenge: Give fluorescence lifetime for N#Cc1c(-n2c3ccccc3c3cc(I)ccc32)c(-n2c3ccccc3c3cc(I)ccc32)c(C#N)c(-n2c3ccccc3c3cc(I)ccc32)c1-n1c2ccccc2c2cc(I)ccc21
Response given: 0.3

Challenge: Give fluorescence lifetime for Cc1ccc2c(c1)c1cc(C)ccc1n2-c1c(-n2c3ccccc3c3ccccc32)c(C#N)c(-n2c3ccccc3c3ccccc32)c(-n2c3ccc(C)cc3c3cc(C)ccc32)c1-n1c2ccccc2c2ccccc21
Response given: 5.9

Challenge: Give fluorescence lifetime for c1ccc(N2c3ccc4ccccc4c3-c3c4ccccc4cc[n+]3[B-]2(c2ccccc2)c2ccccc2)cc1
Response given: 6.31

Challenge: Give fluorescence lifetime for O=C1c2ccc(N(c3ccccc3)c3ccccc3)cc2C(=O)c2ccc(N(c3ccccc3)c3ccccc3)cc21
Response given: 5.3

Challenge: Give fluorescence lifetime for CCCCCCCCCCOc1ccc(C#Cc2ccc(C#Cc3ccc(OCCCCCCCCCC)c(OCCCCCCCCCC)c3)c3nc4c5ccccc5c5ccccc5c4nc23)cc1OCCCCCCCCCC
Response given: 7.1

Challenge: Give fluorescence lifetime for N#CC(C#N)=C(/C=C/c1ccc(N(c2ccccc2)c2ccccc2)cc1)c1ccc2c3c(cccc13)CC2
Response given: 2.26

###

experiment: solvent given as SMILES; details: in ClC(Cl)Cl
Rule: measured fluorescence lifetime below 2 ns gets MET; anything equal to or greater than 2 ns gets NOT MET.

Challenge: Answer whether the compound COc1ccc2c3cccc4c(OC)ccc(c5cccc1c52)c43 has fluorescence lifetime strictly less than 2 ns
Response given: NOT MET

Challenge: Answer whether the compound COc1ccc2cc(-c3ccccc3CC#N)c(=O)oc2c1 has fluorescence lifetime strictly less than 2 ns
Response given: NOT MET

Challenge: Answer whether the compound N#Cc1ccc(C#Cc2ccc(C#Cc3ccc(C#Cc4ccccc4C#N)cc3C#N)cc2C#N)cc1 has fluorescence lifetime strictly less than 2 ns
Response given: MET

Challenge: Answer whether the compound CCCN1C(=O)C(=CC=CC=C2Oc3ccccc3N2CCCS(=O)(=O)[O-])C(=O)N(CCC)C1=S has fluorescence lifetime strictly less than 2 ns
Response given: MET

Challenge: Answer whether the compound CCC(CC)n1c2ccccc2c2cc3c(cc21)c1ccccc1n3C(CC)CC has fluorescence lifetime strictly less than 2 ns
Response given: NOT MET

Challenge: Answer whether the compound COc1ccc(C2=Cc3c4ccccc4cc[n+]3[B-](F)(F)O2)cc1 has fluorescence lifetime strictly less than 2 ns
Response given: MET

Challenge: Answer whether the compound CC1(C)CC(/N=C/c2ccc3ccc4cccc5ccc2c3c45)CC(C)(C)N1 has fluorescence lifetime strictly less than 2 ns
Response given: MET

Challenge: Answer whether the compound CCCCc1cc(-c2cccc(COC)c2)oc1-c1cccc(-c2cc(CCCC)c(-c3cccc(-c4cc(CCCC)c(-c5cccc(-c6oc(-c7cccc(-c8oc(-c9cccc(-c%10oc(-c%11cccc(COC)c%11)cc%10CCCC)c9)cc8CCCC)c7)cc6CCCC)c5)o4)c3)o2)c1 has fluorescence lifetime strictly less than 2 ns
Response given: MET

Challenge: Answer whether the compound Cc1ccc(C2=Cc3ccc4ccccc4[n+]3[B-](F)(F)O2)cc1 has fluorescence lifetime strictly less than 2 ns
Response given: MET

Challenge: Answer whether the compound CN(C)c1ccc(-c2nc(C#N)c(C#N)n2C)cc1 has fluorescence lifetime strictly less than 2 ns
Response given: NOT MET

Challenge: Answer whether the compound CCCCCCN1C(=O)c2cccc3c(-c4ccc(Cl)s4)ccc(c23)C1=O has fluorescence lifetime strictly less than 2 ns
Response given: MET

Challenge: Answer whether the compound C[N+]1=c2cc3c(cc2C(C)(C)CC1)=C(c1ccccc1C(=O)O)c1cc2c(cc1O3)Oc1cc3c(cc1=C2c1ccccc1C(=O)O)C(C)(C)CC[N+]=3C has fluorescence lifetime strictly less than 2 ns
Response given: NOT MET

###

Would you kindly list fluorescence lifetime for each of these molecules?
assay: solvent given as SMILES; conditions: in C1CCCCC1

Challenge: Give fluorescence lifetime for N#C[Se]CCCCCOc1ccc2ccc(=O)oc2c1
Response given: 0.16 ns

Challenge: Give fluorescence lifetime for COc1ccc(-c2ccc(OC)cc2)cc1
Response given: 17.7 ns

Challenge: Give fluorescence lifetime for CNc1cccc2c1C(=O)c1ccccc1-2
Response given: 1.6 ns

Challenge: Give fluorescence lifetime for Cc1ccccc1C1=C2C=c3c(oc4ccccc34)=[N+]2[B-](F)(F)n2c1cc1c3ccccc3oc12
Response given: 4.21 ns

Challenge: Give fluorescence lifetime for COc1ccccc1
Response given: 11.1 ns

Challenge: Give fluorescence lifetime for CCN1/C(=C\c2c(-c3ccc(N(C)C)cc3)c(=O)c2=O)C=Cc2ccccc21
Response given: 1 ns

Challenge: Give fluorescence lifetime for COc1ccc([Si](C)(C)C)c2ccccc12
Response given: 10 ns

Challenge: Give fluorescence lifetime for COc1c2ccccc2c(OC)c2c1c1cc(C)ccc1n2C
Response given: 24.6 ns

Challenge: Give fluorescence lifetime for COC(=O)c1noc(-c2ccccc2)c1Cl
Response given: 0.67 ns

Challenge: Give fluorescence lifetime for COC(=O)C(Cc1ccc2oc(-c3ccc(Nc4ccccc4)cc3)nc2c1)NC(=O)OC(C)(C)C (stereo not drawn)
Response given: 1.23 ns

Challenge: Give fluorescence lifetime for Cc1ccccc1C
Response given: 51 ns

Challenge: Give fluorescence lifetime for C[SiH](C)c1ccc([SiH](C)C)c2ccccc12
Response given: 30 ns

Challenge: Give fluorescence lifetime for CN(C)c1ccc2nc(-c3ccccc3)sc2c1
Response given: 2.1 ns

Challenge: Give fluorescence lifetime for Cc1cccc(Nc2ccccc2C(=O)O)c1C
Response given: 2.7 ns

Challenge: Give fluorescence lifetime for CN(C)c1ccc(-c2nc(C#N)c(C#N)n2C)cc1
Response given: 1.3 ns

Challenge: Give fluorescence lifetime for C#Cc1ccc2ccc3cccc4ccc1c2c34
Response given: 14.9 ns

Challenge: Give fluorescence lifetime for CC1=[N+]2C(=C(c3ccc(N4CCOCC4)cc3)c3ccc(C)n3[B-]2(F)F)C=C1
Response given: 2.15 ns

Challenge: Give fluorescence lifetime for CC1=[N+]2C(=C(c3ccc(C=O)cc3)c3ccc(C)n3[B-]2(F)F)C=C1c1cc2n(c1)[B-](F)(F)[N+]1=CC=CC1=C2c1c(C)cc(C)cc1C
Response given: 2.7 ns

Challenge: Give fluorescence lifetime for CNc1cccc2c1-c1ccccc1C2=O
Response given: 8.8 ns

Challenge: Give fluorescence lifetime for COc1cc(/C=C2/SC(=O)NC2=O)ccc1O
Response given: 0.61 ns

Challenge: Give fluorescence lifetime for COc1c2ccccc2c(OC)c2c1c1ccc(C)cc1n2C
Response given: 20.6 ns

Challenge: Give fluorescence lifetime for c1ccc(-c2ccc(-c3ccc(-c4ccccc4)cc3)cc2)cc1
Response given: 0.8 ns

Challenge: Give fluorescence lifetime for COC(=O)C(Cc1ccc2oc(-c3ccc(N(C)c4ccccc4)cc3)nc2c1)NC(=O)OC(C)(C)C (stereo not drawn)
Response given: 1.81 ns

Challenge: Give fluorescence lifetime for CCCN1C(=O)c2c3c(c4c(c2C1=O)CCc1cc(-c2ccc(N(C)C)cc2)c(OC)cc1-4)-c1cc(OC)c(-c2ccc(N(C)C)cc2)cc1CC3
Response given: 5.13 ns

Challenge: Give fluorescence lifetime for CCCCc1cc2cccc[n+]2[b-]2c(-c3cccc4[b-]3[n+]3ccccc3cc4CCCC)cccc21
Response given: 4.3 ns

Challenge: Give fluorescence lifetime for Brc1c(Br)c2ccc3c(Br)c(Br)c4ccc5ccc1c1c5c4c3c21
Response given: 0.058 ns

Challenge: Give fluorescence lifetime for N#Cc1c2ccccc2cc2ccccc12
Response given: 12.7 ns

Challenge: Give fluorescence lifetime for O=[N+]([O-])c1ccc(F)cc1C1CC(c2cccc3ccccc23)=NN1c1ccccc1 (stereo not drawn)
Response given: 3.08 ns

Hello, the source for this data is the Deep4Chem optical property database, in case you need it.
